Measured values drawn from patent US20210040181A1 for this set.

Recorded A450 values for a group of binders are listed next.
# System: T1, EGFR-Fc (R&D Systems), ectodomain of human EGFR as a Fc fusion (human, UniProt P00533 25-645)
# T1 construct: extracellular domain; Bought from R&D Systems; also called EGFR-FL-Fc; full length EGFR Fc fusion protein; not shown: Fc of the purchased fusion
# Assay overview: direct binding ELISA, single point; clone captured by anti-His, 50 nM receptor-Fc, anti-human Fc HRP
# Experimental: Proteins encoded by independent clones were analyzed for binding to the full length ectodomain of EGFR as well as a truncated version containing the first 525 amino acids (EGFR 525) of the EGFR ectodomain in single point direct binding assays. […] Bound receptor-Fcs were detected via anti-human Fc HRP conjugate with a chromogenic readout (i.e. A450). […]
Reply with just the number (in A450).

867A01 (designed binder, 10Fn3-based clone expressed in E. coli as His6 tagged protein; not shown: His6 tag) VSDVPRDLEVVAATPTSLLISWQQQHTNYRYYRITYGETGGNSPVQEFTVPGRASTATISGLKPGVDYTITVYAVTEHPYYGDPPISINYRT
1.4

Field: next binder
Recorded A450 of 679A05 (designed binder, 10Fn3-based clone expressed in E. coli as His6 tagged protein; not shown: His6 tag) VSDVPRDLEVVAATPTSLLISWARYAECGRYYRITYGETGGNSPVQEFTVPDVPWTATISGLKPGVDYTITVYAVTLGKPPLPGWVSGLDPISINYRT , please.
1.43
